system: VA-ES-BJ; assay: relative viability vs DMSO control (72 h) (fraction); higher = more viable cells; details: 0.01372 µM
Structures can show the parent of a compound that is named as a salt.
Each item that follows carries a reported relative viability.
Form: value (number only, do not type unit).

molecule: N#CC[C@H](C1CCCC1)n1cc(-c2ncnc3[nH]ccc23)cn1 [Ruxolitinib]
value: 1.02

Q: Need relative viability, item COc1cccc2c1C(=O)c1c(O)c3c(c(O)c1C2=O)C[C@@](O)(C(=O)CO)C[C@@H]3O[C@H]1C[C@H](N)[C@H](O)[C@H](C)O1 [Doxorubicin Hydrochloride]
A: 0.857

Q: Consider the molecule shown here: CC1(C)CNc2cc(NC(=O)c3cccnc3NCc3ccncc3)ccc21 [Motesanib] What is its recorded relative viability?
A: 0.988

Q: Find the recorded relative viability belonging to Cc1ccc(NC(=O)c2ccc(CN3CCN(C)CC3)cc2)cc1Nc1nc(-c2cccnc2)cs1 [Masitinib] and report it.
A: 1.08

###

system: G401; experiment: relative viability vs DMSO control (72 h) (fraction); higher = more viable cells; details: 0.00152 µM
attribute measured: relative viability
Could you respond with only the numeric value?

// solved cases for relative viability follow
chemical structure: Cc1ccc(F)c(NC(=O)Nc2ccc(-c3cccc4[nH]nc(N)c34)cc2)c1
attribute measured: relative viability
value: 0.996
--
chemical structure: Cc1cc(Nc2ncnc3ccc(NC4=NC(C)(C)CO4)cc23)ccc1Oc1ccn2ncnc2c1
attribute measured: relative viability
value: 1.02
--
chemical structure: C=CC(=O)N1CCC[C@@H](n2nc(-c3ccc(Oc4ccccc4)cc3)c3c(N)ncnc32)C1
attribute measured: relative viability
value: 1.03
--
chemical structure: CNC(=O)c1ccc(-c2cnc3ncc(Cc4ccc5ncccc5c4)n3n2)cc1F
attribute measured: relative viability
value: 1.03

Q: Using the record for O=C(Nc1cnn2ccc(N3CCC[C@@H]3c3cc(F)ccc3F)nc12)N1CC[C@H](O)C1 , report its relative viability.
A: 1.02

###

system: SW982; assay: relative viability vs DMSO control (72 h) (fraction); higher = more viable cells; details: 3.333 µM
attribute measured: relative viability
Form: value (number only, do not type unit).

Reference set, count: 9
compound: COc1cc2nccc(Oc3ccc(NC(=O)Nc4cc(C)on4)c(Cl)c3)c2cc1OC
value: 0.985

compound: CC(=O)Nc1cccc(-n2c(=O)n(C3CC3)c(=O)c3c(Nc4ccc(I)cc4F)n(C)c(=O)c(C)c32)c1
value: 0.838

compound: C[C@@H](c1ccc2nccn2c1)n1nnc2ncc(-c3cnn(C)c3)nc21
value: 1.07

compound: Cc1nc(NC(=O)N2CCC[C@H]2C(N)=O)sc1-c1ccnc(C(C)(C)C(F)(F)F)c1
value: 0.725

compound: Cn1cnc2c(F)c(Nc3ccc(Br)cc3F)c(C(=O)NOCCO)cc21
value: 0.786

compound: COCc1c(-c2cc3cc(C)cc(OC)c3s2)c2c(N)ncnn2c1CN1CCNC(=O)C1
value: 0.728

compound: CN1CCN(c2ccc3nc(-c4c(N)c5c(F)cccc5[nH]c4=O)[nH]c3c2)CC1
value: 0.237

compound: CC[C@H](Nc1ncnc2[nH]cnc12)c1nc2cccc(F)c2c(=O)n1-c1ccccc1
value: 0.948

compound: CC(C)(C)c1cc(NC(=O)Nc2ccc(-c3cn4c(n3)sc3cc(OCCN5CCOCC5)ccc34)cc2)no1
value: 1.05

Let us examine a further case.
Q: Need relative viability of CC(C)NC(=O)C1CCC(n2c(NC(=O)c3ccc(F)cc3)nc3ccc(CN4CCC(C(C)(C)O)CC4)cc32)CC1 (stereo not given) , thanks.
A: 0.173

###

test system: G401; assay: relative viability vs DMSO control (72 h) (fraction); higher = more viable cells; conditions: 1.111 µM
Counter-ions that a name gives are not always drawn.
attribute measured: relative viability
Number, no unit, nothing else.

Q: Request the reported relative viability associated with COc1cc2/c(=N/c3ccc(Br)cc3F)nc[nH]c2cc1OCC1CCN(C)CC1
A: 0.87

Q: What relative viability value was documented for this molecule, CNC(=O)c1cc(Oc2ccc(NC(=O)Nc3ccc(Cl)c(C(F)(F)F)c3)c(F)c2)ccn1 ?
A: 0.821

Q: Form field: reported relative viability of COc1cccc2c1C(=O)c1c(O)c3c(c(O)c1C2=O)C[C@@](O)(C(=O)CO)C[C@@H]3O[C@H]1C[C@H](N)[C@H](O)[C@H](C)O1 [Doxorubicin Hydrochloride]
A: 0.0407

Q: So what does the record say about relative viability for CC(C)(C)c1cc(NC(=O)Nc2ccc(-c3cn4c(n3)sc3cc(OCCN5CCOCC5)ccc34)cc2)no1 ?
A: 0.971

Q: Param item = O=C(Cc1ccc(-c2ccc(OCCN3CCOCC3)cc2)cn1)NCc1ccccc1 ; retrieve measured relative viability.
A: 0.421

Q: What relative viability value was documented for this molecule, CC(C)NC(=O)C1CCC(n2c(NC(=O)c3ccc(F)cc3)nc3ccc(CN4CCC(C(C)(C)O)CC4)cc32)CC1 (centres undefined) ?
A: 0.606

Q: Recorded relative viability of Nc1cc(C(F)(F)F)c(-c2cc(N3CCOCC3)nc(N3CCOCC3)n2)cn1 , please.
A: 0.594

Q: For C=CC(=O)N1CCC[C@@H](n2nc(-c3ccc(Oc4ccccc4)cc3)c3c(N)ncnc32)C1 , what is its reported relative viability?
A: 1.02

Q: # query: relative viability of entry C[C@@H](c1ccc2nccn2c1)n1nnc2ncc(-c3cnn(C)c3)nc21
A: 1.03

###

system: SYO-1; test: relative viability vs DMSO control (72 h) (fraction); higher = more viable cells; conditions: 0.1235 µM
In plain terms, low relative viability, meaning strictly below 0.9, gives t, and everything else gives f.

Answered cases to consult:
compound: CC(C)N1CCN(Cc2cnc(-c3cc(-c4cccc5[nH]ccc45)cc4[nH]ncc34)o2)CC1 [Nemiralisib]
assigned label: f
--
compound: CCCS(=O)(=O)Nc1ccc(F)c(C(=O)c2c[nH]c3ncc(-c4ccc(Cl)cc4)cc23)c1F [Vemurafenib]
assigned label: f
--
compound: CO[C@H]1C[C@@H]2CC[C@@H](C)[C@@](O)(O2)C(=O)C(=O)N2CCCC[C@H]2C(=O)O[C@H]([C@H](C)C[C@@H]2CC[C@@H](OP(C)(C)=O)[C@H](OC)C2)CC(=O)[C@H](C)/C=C(\C)[C@@H](O)[C@@H](OC)C(=O)[C@H](C)C[C@H](C)/C=C/C=C/C=C/1C [Ridaforolimus]
assigned label: t
--
compound: CC(C)(C)c1cc(NC(=O)Nc2ccc(-c3cn4c(n3)sc3cc(OCCN5CCOCC5)ccc34)cc2)no1 [Quizartinib]
assigned label: t
--
compound: COc1c(OCCCN2CCOCC2)ccc2c1N=C(NC(=O)c1cnc(N)nc1)N1CCN=C21 [Copanlisib]
assigned label: t
--
compound: Cc1nc(NC(=O)N2CCC[C@H]2C(N)=O)sc1-c1ccnc(C(C)(C)C(F)(F)F)c1 [Alpelisib]
assigned label: t

Q: Is 0.9 strictly greater than the compound's reported relative viability? compound: O=C(Cc1ccc(-c2ccc(OCCN3CCOCC3)cc2)cn1)NCc1ccccc1 [KX2-391]
A: t

Q: Hello, is relative viability of the following compound strictly smaller than 0.9? C[C@]1(O)C[C@@H](c2nc(-c3ccc4ccc(-c5ccccc5)nc4c3)c3c(N)nccn32)C1 [Linsitinib]
A: t

###

test system: SW1353; assay: relative viability vs DMSO control (72 h) (fraction); higher = more viable cells; settings: 0.00051 µM
attribute measured: relative viability
Please reply with the value in numeric form only.

chemical structure: C=CC(=O)N1CCC([C@@H]2CCNc3c(C(N)=O)c(-c4ccc(Oc5ccccc5)cc4)nn32)CC1
value: 1.05

chemical structure: CC(C)(C)c1cc(NC(=O)Nc2ccc(-c3cn4c(n3)sc3cc(OCCN5CCOCC5)ccc34)cc2)no1
value: 1.02

Q: Find the recorded relative viability belonging to Cc1ccc(NC(=O)c2ccc(CN3CCN(C)CC3)cc2)cc1Nc1nc(-c2cccnc2)cs1 and report it.
A: 0.998

Q: Query (compound): C=CC(=O)Nc1cccc(Oc2nc(Nc3ccc(N4CCN(C)CC4)cc3)nc3ccsc23)c1 ; field requested: relative viability
A: 1.06

Q: Quick one: relative viability for C[C@@H](c1ccc2nccn2c1)n1nnc2ncc(-c3cnn(C)c3)nc21 ?
A: 1.01

Q: Requested field: relative viability. Item: Cn1cnc2c(F)c(Nc3ccc(Br)cc3F)c(C(=O)NOCCO)cc21
A: 1.08

###

# Lookup of reported relative viability keyed by entry
test system: KHOS-240S; assay: relative viability vs DMSO control (72 h) (fraction); higher = more viable cells; details: 0.01372 µM
The answer should be a number; do not append a unit.

molecule: CCCS(=O)(=O)Nc1ccc(F)c(C(=O)c2c[nH]c3ncc(-c4ccc(Cl)cc4)cc23)c1F [Vemurafenib]
assay target: KHOS-240S
attribute measured: relative viability
value: 1.08

molecule: Nc1cc(C(F)(F)F)c(-c2cc(N3CCOCC3)nc(N3CCOCC3)n2)cn1 [Buparlisib]
assay target: KHOS-240S
attribute measured: relative viability
value: 1.03

molecule: CC[C@H](Nc1ncnc2[nH]cnc12)c1nc2cccc(F)c2c(=O)n1-c1ccccc1 [Idelalisib]
assay target: KHOS-240S
attribute measured: relative viability
value: 1.09

molecule: C[C@@H]1CCN(C(=O)CC#N)C[C@@H]1N(C)c1ncnc2[nH]ccc12 [Tofacitinib]
assay target: KHOS-240S
attribute measured: relative viability
value: 1.05

molecule: COc1cc2c(Oc3ccc4[nH]c(C)cc4c3F)ncnc2cc1OCCCN1CCCC1 [Cediranib]
assay target: KHOS-240S
attribute measured: relative viability
value: 1.05

Q: Item under review: N#CC[C@H](C1CCCC1)n1cc(-c2ncnc3[nH]ccc23)cn1 [Ruxolitinib] . Reported relative viability?
A: 0.95

Q: So what's the measured relative viability for this one? CN1CCC(COc2cnc(-c3cccc(Cn4nc(-c5cccc(C#N)c5)ccc4=O)c3)nc2)CC1 [Tepotinib]
A: 1.04

Q: Dear colleague, I am looking for the recorded relative viability of the following molecule: Cc1nc(NC(=O)N2CCC[C@H]2C(N)=O)sc1-c1ccnc(C(C)(C)C(F)(F)F)c1 [Alpelisib]
A: 1.02

Q: So what's the measured relative viability for this one? CNC(=O)c1cc(Oc2ccc(NC(=O)Nc3ccc(Cl)c(C(F)(F)F)c3)c(F)c2)ccn1 [Regorafenib]
A: 1.1

Q: Could you share which relative viability value was measured for C=CC(=O)Nc1cccc(Oc2nc(Nc3ccc(N4CCN(C)CC4)cc3)nc3ccsc23)c1 [Olmutinib] ?
A: 1.01

Q: May I ask what relative viability has been recorded for O=C(Nc1cnn2ccc(N3CCC[C@@H]3c3cc(F)ccc3F)nc12)N1CC[C@H](O)C1 [Larotrectinib] ?
A: 1.05

Q: Recorded relative viability for C[C@@H](c1ccc2nccn2c1)n1nnc2ncc(-c3cnn(C)c3)nc21 [Volitinib] , please?
A: 1.08
